Quick reference: hydrolysis by 44A2 of the listed items.
system: 44A2; experiment: Hydrolysis of reactant ligands by receptor 44A2; format: biochemical, mouse; settings: pH 8.0; receptor/ligand uM, time h: 17 1/10, 2; 18 2/10, 24; 20 2/10, 0.33; 5 1/5, 0.33; 22 5/10, 3.5; preliminary

* CC(=O)Oc1cccc2ccccc12 | 84 percentage of reactant ligand
* CC(=O)Nc1ccc(CC(=O)Oc2ccccc2)cc1 | 24 percentage of reactant ligand
* O=C(Cc1ccc(NC(=O)C(F)(F)F)cc1)Oc1ccc2ccc(=O)oc2c1 | 47 percentage of reactant ligand
* CC(=O)Nc1ccc(CC(=O)Oc2ccc3c(C)cc(=O)oc3c2)cc1 | 33 percentage of reactant ligand

Next compound, please.
Incoming: Given CC(=O)Nc1ccc(CC(=O)Oc2cccc3ccccc23)cc1 , report its hydrolysis by 44A2 on 44A2.
Outgoing: 62 percentage of reactant ligand

====

Molecular target: Monoclonal Receptor 22F5
Assay: Kinetics of hydrolysis by receptor 22F5
Format: biochemical, mouse
Details: inhibitor Compound 12i (100 and 200 nM), substrate Compound 5; figure = Ki × 10^7
Description: Reaction kinetics were studied using three reactant ligands as substrates for monoclonal receptors 37G2 and 22F5. Data from initial rates were consistent with Michaelis-Menten reaction mechanism for a usual enzyme-substrate system. Initial rates were followed using at 271 nm using a U.V.-visible spectorphotometer for Compound 17, and a fluorescence spectrometer for Compounds 5 and 20, using an excitation wavelength of 355 nm and an emission wavelength of 455 nm for both compounds. […]
metric: Ki (nM)
Answer with a number only, understood to be in nM.

Incoming: Give the reported Ki for this compound. Cc1ccc2cccc(NP(=O)(O)Cc3ccc(NC(=O)C(F)(F)F)cc3)c2n1 [Compound 12i]
Outgoing: 110

====

biological target: monoclonal receptor NPN 43C9; experiment: Amide hydrolysis by monoclonal receptor NPN 43C9, kinetics and inhibition; format: biochemical, mouse; settings: infinite reactant ligand concentration, inhibitor binding to receptor in a complex; substrate Compound 28; read-out: inhibition constant kii
metric: pKi
Please note pKi is a logarithmic value: minus log10 of concentration in mol/L. Answer with that number alone.

Incoming: Given CC(=O)Nc1ccc(CP(=O)(O)Nc2ccc([N+](=O)[O-])cc2)cc1 [Compound 24i] , report its pKi on monoclonal receptor NPN 43C9.
Outgoing: 5.60

====

tested on: 13E10; experiment: Hydrolysis of reactant ligands by receptor 13E10; type: biochemical, mouse; conditions: pH 8.0; receptor/ligand uM, time h: 17 1/10, 2; 18 2/10, 24; 20 2/10, 0.33; 5 1/5, 0.33; 22 5/10, 3.5; preliminary
Quick reference: hydrolysis by 13E10 of the listed items.

• CC(=O)Oc1cccc2ccccc12 = 69 percentage of reactant ligand
• CC(=O)Nc1ccc(CC(=O)Oc2ccccc2)cc1 = 14 percentage of reactant ligand
• O=C(Cc1ccc(NC(=O)C(F)(F)F)cc1)Oc1ccc2ccc(=O)oc2c1 = 13 percentage of reactant ligand

Incoming: Give the reported hydrolysis by 13E10 for this compound. CC(=O)Nc1ccc(CC(=O)Oc2ccc3c(C)cc(=O)oc3c2)cc1
Outgoing: 16 percentage of reactant ligand

Incoming: Give the reported hydrolysis by 13E10 for this compound. CC(=O)Nc1ccc(CC(=O)Oc2cccc3ccccc23)cc1
Outgoing: 32 percentage of reactant ligand

====

biological target: monoclonal antibody P3 6D4; assay: Kinetics and inhibition of catalytic ester hydrolysis by monoclonal antibody P3 6D4, spectrophotometric at 245 nm; type: biochemical, mouse; details: inhibitor Compound 3, substrate Compound 8 (table line 8), pH 8.0; figure = Ki × 10^7; read-out: Ki
metric: Ki (nM)
Answer with a number only, understood to be in nM.

Incoming: Given CCOP(=O)(Cc1ccc(NC(=O)C(F)(F)F)cc1)Oc1ccc(NC(C)=O)cc1CNC(=O)c1cccc(C(=O)OC)n1 (stereo not shown) , report its Ki on monoclonal antibody P3 6D4.
Outgoing: 65

====

test system: 17G8; assay: Hydrolysis of reactant ligands by receptor 17G8; format: biochemical, mouse; conditions: pH 8.0; receptor/ligand uM, time h: 18 2/10, 24; 20 2/10, 0.33; 5 1/5, 0.33; 22 5/10, 3.5; preliminary
Quick reference: hydrolysis by 17G8 of the listed items.

* O=C(Cc1ccc(NC(=O)C(F)(F)F)cc1)Oc1ccc2ccc(=O)oc2c1 | 16 percentage of reactant ligand
* CC(=O)Nc1ccc(CC(=O)Oc2ccc3c(C)cc(=O)oc3c2)cc1 | 20 percentage of reactant ligand
* CC(=O)Oc1cccc2ccccc12 | 84 percentage of reactant ligand

Next molecule, please.
Incoming: Give the reported hydrolysis by 17G8 for this molecule. CC(=O)Nc1ccc(CC(=O)Oc2ccccc2)cc1
Outgoing: 22 percentage of reactant ligand

====

assay: Spontaneous (uncatalyzed, background) hydrolysis; format: physicochemical; details: pH 8.0, 50 mM phosphate; time (h): 17 2; 18 24; 20 0.33; 5 0.33; 22 3.5
Quick reference: Spon. (spontaneous hydrolysis) of the listed items.

Example entries and their recorded answers appear below.
- CC(=O)Nc1ccc(CC(=O)Oc2cccc3ccccc23)cc1: 7 percentage of reactant ligand
- CC(=O)Oc1cccc2ccccc12: 34 percentage of reactant ligand

Incoming: Give the reported Spon. (spontaneous hydrolysis) for this compound. CC(=O)Nc1ccc(CC(=O)Oc2ccccc2)cc1
Outgoing: 5 percentage of reactant ligand

Incoming: Give the reported Spon. (spontaneous hydrolysis) for this compound. O=C(Cc1ccc(NC(=O)C(F)(F)F)cc1)Oc1ccc2ccc(=O)oc2c1
Outgoing: 5 percentage of reactant ligand

Incoming: Give the reported Spon. (spontaneous hydrolysis) for this compound. CC(=O)Nc1ccc(CC(=O)Oc2ccc3c(C)cc(=O)oc3c2)cc1
Outgoing: 14 percentage of reactant ligand

====

test system: 37G2; test: Hydrolysis of reactant ligands by receptor 37G2; format: biochemical, mouse; settings: pH 8.0; receptor/ligand uM, time h: 17 1/10, 2; 18 2/10, 24; 20 2/10, 0.33; 5 1/5, 0.33; 22 5/10, 3.5; preliminary
metric: hydrolysis by 37G2

Example entries and their recorded answers appear below.
- CC(=O)Nc1ccc(CC(=O)Oc2ccc3c(C)cc(=O)oc3c2)cc1 [Compound 20]: 39 percentage of reactant ligand
- CC(=O)Nc1ccc(CC(=O)Oc2cccc3ccccc23)cc1 [Compound 17]: 60 percentage of reactant ligand

Incoming: Give the reported hydrolysis by 37G2 for this compound. O=C(Cc1ccc(NC(=O)C(F)(F)F)cc1)Oc1ccc2ccc(=O)oc2c1 [Compound 5]
Outgoing: 12 percentage of reactant ligand

Incoming: Give the reported hydrolysis by 37G2 for this compound. CC(=O)Oc1cccc2ccccc12 [Compound 18]
Outgoing: 92 percentage of reactant ligand

Incoming: Give the reported hydrolysis by 37G2 for this compound. CC(=O)Nc1ccc(CC(=O)Oc2ccccc2)cc1 [Compound 22]
Outgoing: 45 percentage of reactant ligand

====

biological target: monoclonal receptor P3 6D4; assay: Stoichiometric transacylation reaction of monoclonal receptor P3 6D4 with coumarin ester Compound 5 (fluorescence) and its inhibition/inactivation; assay type: biochemical, mouse; conditions: substrate Compound 5; estimated; read-out: inhibition constant, stoichiometric reaction with Compound 5
Quick reference: pKi of the listed items.
Please note pKi is a logarithmic value: minus log10 of concentration in mol/L. Answer with that number alone.

• CC(=O)Nc1ccc(OP(=O)(O)Cc2ccc(NC(=O)C(F)(F)F)cc2)c(CNC(=O)c2cccc(C(=O)O)n2)c1 = 7.46

Next molecule, please.
Incoming: Give the reported pKi for this molecule. CC(=O)Nc1ccc(OP(=O)(O)Cc2ccc(NC(=O)C(F)(F)F)cc2)cc1
Outgoing: 7.00

====

system: 21G2; test: Hydrolysis of reactant ligands by receptor 21G2; type: biochemical, mouse; conditions: pH 8.0; receptor/ligand uM, time h: 17 1/10, 2; 18 2/10, 24; 20 2/10, 0.33; 5 1/5, 0.33; 22 5/10, 3.5; preliminary
metric: hydrolysis by 21G2

• CC(=O)Oc1cccc2ccccc12 = 72 percentage of reactant ligand
• O=C(Cc1ccc(NC(=O)C(F)(F)F)cc1)Oc1ccc2ccc(=O)oc2c1 = 43 percentage of reactant ligand
• CC(=O)Nc1ccc(CC(=O)Oc2ccccc2)cc1 = 19 percentage of reactant ligand
• CC(=O)Nc1ccc(CC(=O)Oc2ccc3c(C)cc(=O)oc3c2)cc1 = 36 percentage of reactant ligand

Next compound, please.
Incoming: Give the reported hydrolysis by 21G2 for this compound. CC(=O)Nc1ccc(CC(=O)Oc2cccc3ccccc23)cc1
Outgoing: 10 percentage of reactant ligand

====

target: monoclonal receptor P3 6D4; assay: Stoichiometric transacylation reaction of monoclonal receptor P3 6D4 with coumarin ester Compound 5 (fluorescence) and its inhibition/inactivation; assay type: biochemical, mouse; settings: summary; kinetic parameters at low pH values; read-out: Ki (inhibition of antibody esterolysis)
metric: pKi
Please note pKi is a logarithmic value: minus log10 of concentration in mol/L. Answer with that number alone.

* CC(=O)Nc1ccc(OP(=O)(O)Cc2ccc(NC(=O)C(F)(F)F)cc2)c(CNC(=O)c2cccc(C(=O)O)n2)c1 [Compound 3i] | 7.46

Next molecule, please.
Incoming: Give the reported pKi for this molecule. O=C(O)Cc1ccc(NC(=O)C(F)(F)F)cc1 [carboxylate product of ester hydrolysis]
Outgoing: 5.15
